experiment: total protein half-life in vivo (active degradation + dilution); higher = more stable protein; conditions: wild type E. coli NCM3722; growth: C-lim chemostat; doubling time 12 h
METRIC: total protein half-life in vivo
Report field: quantity (unit follows the number).

Below, 2 sequences whose answers are already recorded.
MQQVFFQETEFLNSVIDYDHKVETENLCLDIAYGTDKNFLFGCGISIASILKYNEGSRLCFHIFTDYFGDDDRKYFDALALQYKTRIKIYLINGDRLRSLPSTKNWTHAIYFRFVIADYFINKAPKVLYLDADIICQGTIEPLINFSFPDDKVAMVVTEGQADWWEKRAHSLGVAGIAKGYFNSGFLLINTAQWAAQQVSARAIAMLNEPEIIKKITHPDQDVLNMLLADKLIFADIKYNTQFSLNYQLKESFINPVTNDTIFIHYIGPTKPWHDWAWDYPVSQAFMEAKNASPWKNTALLKPNNSNQLRYSAKHMLKKHRYLKGFSNYLFYFIEKIKH: 10.4 h
MRILLSNDDGVHAPGIQTLAKALREFADVQVVAPDRNRSGASNSLTLESSLRTFTFENGDIAVQMGTPTDCVYLGVNALMRPRPDIVVSGINAGPNLGDDVIYSGTVAAAMEGRHLGFPALAVSLDGHKHYDTAAAVTCSILRALCKEPLRTGRILNINVPDLPLDQIKGIRVTRCGTRHPADQVIPQQDPRGNTLYWIGPPGGKCDAGPGTDFAAVDEGYVSITPLHVDLTAHSAQDVVSDWLNSVGVGTQW [P0A840]: 8.36 h

Record MSDVLRPYRDLFPQIGQRVMIDDSSVVIGDVRLADDVGIWPLVVIRGDVHYVQIGARTNIQDGSMLHVTHKSSYNPDGNPLTIGEDVTVGHKVMLHGCTIGNRVLVGMGSILLDGAIVEDDVMIGAGSLVPQNKRLESGYLYLGSPVKQIRPLSDEEKAGLRYSANNYVKWKDEYLDQGNQTQP [P0A9W9] . Reported total protein half-life in vivo: 10 h

###

In this section, each of the sequences is paired with its reported total protein half-life in vivo.
assay: total protein half-life in vivo (active degradation + dilution); higher = more stable protein; conditions: wild type E. coli NCM3722; growth: C-lim chemostat; doubling time 12 h
The answer is to be given in h; state only the numeric part.

Below, 2 sequences whose answers are already recorded.
MPDQTQQFSFKVLTINIHKGFTAFNRRFILPELRDAVRTVSADIVCLQEVMGAHEVHPLHVENWPDTSHYEFLADTMWSDFAYGRNAVYPEGHHGNAVLSRYPIEHYENRDVSVDGAEKRGVLYCRIVPPMTGKAIHVMCVHLGLREAHRQAQLAMLAEWVNELPDGEPVLVAGDFNDWRQKANHPLKVQAGLDEIFTRAHGRPARTFPVQFPLLRLDRIYVKNASASAPTALPLRTWRHLSDHAPLSAEIHL [P0AAW1]: 10.9
MNIYTFDFDEIESQEDFYRDFSQTFGLAKDKVRDLDSLWDVLMNDVLPLPLEIEFVHLGEKTRRRFGALILLFDEAEEELEGHLRFNVRH: 9.22

Shifting focus to the sequence that follows.
Record MTAPSQVLKIRRPDDWHLHLRDGDMLKTVVPYTSEIYGRAIVMPNLAPPVTTVEAAVAYRQRILDAVPAGHDFTPLMTCYLTDSLDPNELERGFNEGVFTAAKLYPANATTNSSHGVTSIDAIMPVLERMEKIGMPLLVHGEVTHADIDIFDREARFIESVMEPLRQRLTALKVVFEHITTKDAADYVRDGNERLAATITPQHLMFNRNHMLVGGVRPHLYCLPILKRNIHQQALRELVASGFNRVFLGTDSAPHARHRKESSCGCAGCFNAPTALGSYATVFEEMNALQHFEAFCSVNGPQFYGLPVNDTFIELVREEQQVAESIALTDDTLVPFLAGETVRWSVKQ . Reported total protein half-life in vivo: 8.19
